Some compounds, each annotated with its measured CC50.
Test protocol: in vitro
Experimental setup: human, CEM/0 cells (wild-type CD4+ T-cells)

Previously resolved entries follow.
{"columns": ["Compound", "Assay result"],
 "data": [
  ["Cc1cn([C@H]2C[C@H](F)[C@@H](CO)O2)c(=O)[nH]c1=O [1f (FLT), FLT, reference compound]", "> 100 µM"],
  ["O=c1ccn([C@H]2C[C@H](F)[C@@H](CO)O2)c(=O)[nH]1 [1e (FddU), FddU, reference compound]", "> 100 µM"]
]}

In the following, a different compound is considered.
What does the data say about its CC50? Entry: CCCCCCCCCCCCCCCCCCOP(=O)(O)OP(=O)(O)OP(=O)(O)OC[C@@H]1C=C[C@H](n2cnc3c(NC4CC4)nc(N)nc32)C1 [20h, γ‐C18‐ABCTP] > 100 µM
